Tested on: OVCAR-5 ovarian
assay-remarks: NCI tumour cell line growth inhibition, 48 h
measured-property: TGI

Lookup: Specify TGI for O=[N+]([O-])c1cc(C(F)(F)F)ccc1Sc1ccc(C(F)(F)F)cc1[N+](=O)[O-] and stop.
Found: > 100 µM

Lookup: Give reported TGI value for CC1(C)N=C(N)N=C(N)N1c1cccc(C(=O)Nc2ccc(S(=O)(=O)F)cc2)c1
Found: > 100 µM

Lookup: Could you please provide reported TGI for O=C1c2c(ccc3c2CCC3)CC12Cc1ccccc1C2 ? Thanks!
Found: > 100 µM

Lookup: Retrieve TGI measured for CC1(c2ccc(Cl)s2)CC(c2ccc(Cl)s2)=C(C#N)C(=C(C#N)C#N)N1 (stereo not given) and print it.
Found: 35.8 µM

Lookup: Read off the recorded TGI for O=c1c(-c2ccccc2F)coc2cc(F)ccc12
Found: > 100 µM
